B1: CSNK1G1 (parent)
chain: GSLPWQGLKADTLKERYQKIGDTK

- Variants of: B1
- method: protein stability index of a GFP-peptide fusion (GPS, HEK-293T) (PSI 1-6); higher = more stable;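 also: lentivirally expressed fusions sorted by FACS into six bins by GFP to DsRed ratio, PSI derived from sequencing read proportions per bin multiplied by bin number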
- condition: c terminus: a fixed tail appended
# cutoff 4 applies to protein stability index; >= gives label 1, < gives label 0

INPUT: Check the entry K9W : does protein stability index equal or exceed 4?
OUTPUT: label 0

INPUT: Does the variant Q18A have recorded protein stability index that is 4 or more?
OUTPUT: label 1

INPUT: For this variant, is measured protein stability index 4 or higher? D11W
OUTPUT: label 0

INPUT: Item K24I with protein stability index of 4 or above?
OUTPUT: label 0

INPUT: Is protein stability index at least 4? Consider K14C
OUTPUT: label 0

INPUT: Threshold query (protein stability index >= 4) on G1Y
OUTPUT: label 0

INPUT: Form field: protein stability index at least 4? Entry: K9S
OUTPUT: label 1

INPUT: Entry T23G : is its protein stability index no less than 4?
OUTPUT: label 1

INPUT: Please check the record Y17M and state if its protein stability index is at or above 4.
OUTPUT: label 1

INPUT: // inclusive: protein stability index at least 4? input: L8W
OUTPUT: label 0

INPUT: Does the reported protein stability index for G21F fall at or above the 4 mark?
OUTPUT: label 0

INPUT: Reported protein stability index at or above 4? G7R
OUTPUT: label 0

INPUT: Please check the record P4M and state if its protein stability index is at or above 4.
OUTPUT: label 1

INPUT: # check: protein stability index of P4D is greater than or equal to 4
OUTPUT: label 1

INPUT: Given the entry E15W , answer whether its protein stability index meets or surpasses 4.
OUTPUT: label 0

INPUT: protein stability index >= 4 for K14A ?
OUTPUT: label 1
